Test system: murine neural precursor cells (neurosphere cultures)
Assay: HTS of LOPAC library against secondary neurosphere cultures, MTT proliferation assay at 3 μM, day 7 (z score, P value)
Assay type: cell-based, mouse
Settings: LOPAC primary screen, neurosphere MTT proliferation, 3 μM, day 7
Structures can show the parent of a compound that is named as a salt.
Class (by Z score) -- low value: < -1; medium value: ≥ -1 and < -0.3; high value: ≥ -0.3

The entry to classify is "CCOC(=O)c1ncn2c1CN(C)C(=O)c1cc(F)ccc1-2" ; which class holds it?
medium value

The entry to classify is CC(C)Cc1ccc(C(C)C(=O)O)cc1 (racemic) [(±)-Ibuprofen] ; which class holds it?
high value

The entry to classify is CC(C)NC(C)Cc1ccc(I)cc1 (stereo not drawn) [Iofetamine hydrochloride] ; which class holds it?
medium value

The entry to classify is "CCN(CC)CCOCCOC(=O)C1(c2ccccc2)CCCC1" ; which class holds it?
low value

The entry to classify is "Cc1cc(C)c(/C=C2\C(=O)Nc3ccccc32)[nH]1" ; which class holds it?
medium value

The entry to classify is "COC1=C(OC)C(=O)c2ccccc2C1=O" ; which class holds it?
low value

The entry to classify is Cc1c(C)c2c(c(C)c1O)CCC(C)(CN1CCN(c3cc(N4CCCC4)nc(N4CCCC4)n3)CC1)O2.Cl.Cl (stereo not drawn) [U-83836 dihydrochloride] ; which class holds it?
high value

The entry to classify is "CN(C)c1ccc(/C=C2\C(=O)Nc3ccccc32)cc1" ; which class holds it?
high value

The entry to classify is Br.CN=c1nc(-c2ccccc2)n(-c2ccccc2)s1 [SCH-202676 hydrobromide] ; which class holds it?
high value

The entry to classify is "Cc1cc(N)c2ccccc2[n+]1CCCCCCCCCCCCCC[n+]1c(C)cc(N)c2ccccc21" ; which class holds it?
low value

The entry to classify is "O=C1OC(=O)[C@H]2[C@@H]1[C@@H]1CC[C@H]2O1" ; which class holds it?
low value

The entry to classify is CC(=O)OCC1=C(C(=O)O)N2C(=O)[C@@H](NC(=O)Cc3cccs3)[C@H]2SC1 [Cephalothin sodium] ; which class holds it?
high value

The entry to classify is "O=C(O)CP(=O)(O)O" ; which class holds it?
medium value

The entry to classify is COc1ccc(C2CNC(=O)C2)cc1OC1CCCC1 (stereo not drawn) ; which class holds it?
low value

The entry to classify is CC(C)NCC(O)COc1cccc2[nH]ccc12 (stereo not drawn) [S(−)-Pindolol] ; which class holds it?
low value

The entry to classify is "CC[C@H](C)C(=O)O[C@H]1CCC=C2C=C[C@H](C)[C@H](CC[C@@H]3C[C@@H](O)CC(=O)O3)[C@H]21" ; which class holds it?
low value

The entry to classify is CC(C)C[C@H](N)CSSC[C@@H](N)CC(C)C.Cl.Cl [L-Leucinethiol, oxidized dihydrochloride] ; which class holds it?
medium value

---

Tested on: murine neural precursor cells (neurosphere cultures)
Experiment: HTS of LOPAC library against secondary neurosphere cultures, MTT proliferation assay at 3 μM, day 7 (z score, P value)
Assay type: cell-based, mouse
Details: 168 h, 3 µM
Residues, ends and D or L forms follow the SMILES beside them. *: point of attachment. Cbz = O=C(OCc1ccccc1)*
endpoint_label: Z Score
Answer field: number only, no words.

Fill in the blank: the reported Z Score of "Cn1cnc2c(NCc3ccccc3)nc(NCCO)nc21" is ____.
1.553

Fill in the blank: the reported Z Score of "O=S(=O)(O)C1CCNCC1" is ____.
−0.4238

Fill in the blank: the reported Z Score of CC(C)[C@H](NC(=O)OCc1ccccc1)C(=O)N[C@H](C=O)Cc1ccccc1 [MDL 28170] (Cbz-Val-Phe-aldehyde) is ____.
−1.139

Fill in the blank: the reported Z Score of O=C1O/C(=C/Br)CCC1c1cccc2ccccc12 (stereo not drawn) is ____.
0.2484

Fill in the blank: the reported Z Score of "NCCCNCCSP(=O)(O)O" is ____.
0.3592

Fill in the blank: the reported Z Score of "CCn1c(=O)c2[nH]c(-c3ccccc3)nc2n(CC)c1=O" is ____.
2.005

Fill in the blank: the reported Z Score of O=C(O)[C@@H]1C[C@H](C(=O)O)N1 [cis-Azetidine-2,4-dicarboxylic acid] is ____.
−2.251

Fill in the blank: the reported Z Score of "S=C(Nc1ccccc1)Nc1nccs1" is ____.
1.208

Fill in the blank: the reported Z Score of "COc1ccc2c(c1)c(CC(=O)O)c(C)n2Cc1ccc(F)cc1" is ____.
−0.5376

---

Tested on: murine neural precursor cells (neurosphere cultures)
Assay: HTS of LOPAC library against secondary neurosphere cultures, MTT proliferation assay at 3 μM, day 7 (z score, P value)
Assay type: cell-based, mouse
Conditions: LOPAC library screen, 3 μM, MTT, neurosphere cultures
Structures can show the parent of a compound that is named as a salt.
For each entry below, report its Z Score value.
Answer field: number only, no words.

Fill in the blank: the reported Z Score of CN(C)CCC=C1c2ccccc2C=Cc2ccccc21 [Cyclobenzaprine hydrochloride] is ____.
0.07186

Fill in the blank: the reported Z Score of "O=C(O)c1cc(=O)c2c(Cl)cc(Cl)cc2[nH]1" is ____.
0.9011

Fill in the blank: the reported Z Score of C1COC(NC(C2CC2)C2CC2)=N1 [Rilmenidine hemifumarate] is ____.
0.5264

Fill in the blank: the reported Z Score of CCN(CC)CCNC(=O)c1cc(S(C)(=O)=O)ccc1OC [Tiapride hydrochloride] is ____.
0.6889

Fill in the blank: the reported Z Score of CC(C)NCC(O)c1ccc(O)c(O)c1.Cl (single isomer, unassigned; (-)) [(−)-Isoproterenol hydrochloride] is ____.
0.2367

Fill in the blank: the reported Z Score of CN1CCN2c3ccccc3Cc3ccccc3C2C1 (stereo not shown) [Mianserin hydrochloride] is ____.
0.9746

Fill in the blank: the reported Z Score of CC(=O)OCC1=C(C(=O)O)N2C(=O)[C@@H](NC(=O)CSc3ccncc3)[C@H]2SC1 [Cephapirin sodium] is ____.
0.6219

Fill in the blank: the reported Z Score of O=C1CC[C@@]2(O)[C@H]3Cc4ccc(O)c5c4[C@@]2(CCN3CC2CC2)[C@H]1O5 [Naltrexone hydrochloride] is ____.
0.3891

Fill in the blank: the reported Z Score of "C[C@H]1C[C@H]2[C@@H]3CCC4=CC(=O)C=C[C@]4(C)[C@@]3(F)[C@@H](O)C[C@]2(C)[C@@]1(O)C(=O)CO" is ____.
0.8811

Fill in the blank: the reported Z Score of CC(C)NCC(O)COc1cccc2[nH]ccc12 (stereo not shown) is ____.
−0.07895

---

For each entry below, report its Z score value.
Test system: murine neural precursor cells (neurosphere cultures)
Assay: HTS of LOPAC library against secondary neurosphere cultures, MTT proliferation assay at 3 μM, day 7 (z score, P value)
Assay type: cell-based, mouse
Settings: LOPAC primary screen, neurosphere MTT proliferation, 3 μM, day 7
Where a name gives a salt, the structure may show the parent alone.
Answer field: number only, no words.

Fill in the blank: the reported Z score of CC1CNCCN1S(=O)(=O)c1cccc2cnccc12.Cl.Cl (stereo not shown) [H-7 dihydrochloride] is ____.
0.681

Fill in the blank: the reported Z score of "O=S(=O)(c1cccc2c(I)cccc12)N1CCCNCC1" is ____.
−11.274

Fill in the blank: the reported Z score of CCN1CCCC1CNC(=O)c1cc(S(N)(=O)=O)ccc1OC (single isomer, unassigned; (-)) [(−)-Sulpiride] is ____.
−2.647

Fill in the blank: the reported Z score of "COC(=O)c1c(C)[nH]c(C)c1C(=O)c1ccccc1Cc1ccccc1" is ____.
−1.099

Fill in the blank: the reported Z score of CN1CCN(C2Cc3ccccc3Sc3ccc(Cl)cc32)CC1.O=C(O)/C=C\C(=O)O (racemic) [(±)-Octoclothepin maleate] is ____.
1.473

Fill in the blank: the reported Z score of CC1=C(/C=C/C(C)=C/C=C/C(C)=C/C(=O)Nc2ccc(O)cc2)C(C)(C)CCC1 [Fenretinide (11), Retinoic acid p-hydroxyanilide] is ____.
−6.013

Fill in the blank: the reported Z score of COC(=O)C1=C(C)NC(C)=C(C(=O)OCCN(C)Cc2ccccc2)C1c1cccc([N+](=O)[O-])c1 (stereo not shown) [Nicardipine hydrochloride] is ____.
1.869

Fill in the blank: the reported Z score of NC[C@H](O)c1ccc(O)c(O)c1.O=C(O)C(O)C(O)C(=O)O (racemic) [(±)-Norepinephrine (+)bitartrate] is ____.
0.099

Fill in the blank: the reported Z score of CN(C)CCCN1c2ccccc2CCc2ccc(Cl)cc21 [Clomipramine hydrochloride] is ____.
−0.844

Fill in the blank: the reported Z score of NC(=O)CN1CC(O)CC1=O (stereo not shown) is ____.
−0.613

Fill in the blank: the reported Z score of NC(C(=O)O)C(O)C(=O)O (racemic) [DL-threo-beta-hydroxyaspartic acid] is ____.
−0.522

Fill in the blank: the reported Z score of NCC(O)(CS(=O)(=O)O)c1ccc(Cl)cc1 (stereo not shown) [2-Hydroxysaclofen] is ____.
−1.624

Fill in the blank: the reported Z score of "O=C1NCN(c2ccccc2)C12CCN(CCCC(c1ccc(F)cc1)c1ccc(F)cc1)CC2" is ____.
1.589

Fill in the blank: the reported Z score of "CN1C(C(=O)Nc2ccccn2)=C(O)c2ccccc2S1(=O)=O" is ____.
0.253

Fill in the blank: the reported Z score of CC(=O)[C@H]1CC[C@H]2[C@@H]3CC=C4C[C@@H](OS(=O)(=O)[O-])CC[C@]4(C)[C@H]3CC[C@]12C.[Na+] [Pregnenolone sulfate sodium] is ____.
2.653

Fill in the blank: the reported Z score of "N[C@@H](Cc1ccc(N(CCCl)CCCl)cc1)C(=O)O" is ____.
−3.907
